Tested on: SGK1 (human), O00141 [S422D]
Sequence (O00141 whole entry S422D, looked up): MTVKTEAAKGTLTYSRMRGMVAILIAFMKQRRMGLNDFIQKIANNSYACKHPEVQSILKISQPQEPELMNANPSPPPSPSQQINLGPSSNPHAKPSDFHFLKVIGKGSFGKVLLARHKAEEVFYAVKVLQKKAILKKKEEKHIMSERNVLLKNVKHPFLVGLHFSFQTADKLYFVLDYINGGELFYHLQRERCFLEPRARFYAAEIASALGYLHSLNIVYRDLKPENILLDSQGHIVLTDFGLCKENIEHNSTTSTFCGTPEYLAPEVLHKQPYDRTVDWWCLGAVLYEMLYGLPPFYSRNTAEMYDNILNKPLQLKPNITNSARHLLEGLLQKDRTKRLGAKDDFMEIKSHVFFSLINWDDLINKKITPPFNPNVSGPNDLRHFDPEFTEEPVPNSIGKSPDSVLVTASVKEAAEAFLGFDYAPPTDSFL
Assay: radiometric filter-binding kinase assay, Kinase HotSpot
Conditions: compound 0.5 µM; ATP 10 µM
Please provide measured residual activity for the entries that follow.
Just the number please, in %, no unit attached.

// field: residual activity; key: Cc1ccc(NC2=CC(=O)c3sc(C)nc3C2=O)cc1 ; value = 114

# compound CCCNC(=O)Nc1ccc(Oc2ncnc3cc(OC)c(OC)cc23)cc1Cl ; its residual activity = 96.2

Recorded result, N#Cc1c(NC(=O)c2cccc3ccccc23)sc2c1CCCC2 , residual activity: 108

// recorded residual activity for Nc1nccc(-c2c(-c3ccc(F)cc3)ncn2C2CCNCC2)n1 : 97.4

Value of residual activity reported for the compound CC(C)N(CCC(=O)c1ccc2ccccc2c1)Cc1ccccc1 is 101

Sample O=C1NC(=O)/C(=C\c2ccc3nccnc3c2)S1 ; residual activity observed: 95

Value of measured residual activity for the entry O=C1Nc2ccccc2/C1=C1\Nc2ccccc2\C1=N/O : 69.1

The value of residual activity measured for the compound CC[n+]1c(/C=C/N(C)c2ccccc2)n(-c2ccccc2)c2ccc(-c3nc4ccccc4s3)cc21 turned out to be 97.2

Given item O=C(Nc1cccc(Nc2cc(Nc3cccc(C(F)(F)F)c3)ncn2)c1)C1CC1 , the value recorded as its residual activity is 94.8

residual activity reading for FC(F)(F)c1ccc(/C=C/c2nc(COc3ccc(CCCCn4ccnn4)cc3)co2)cc1 : 102

# residual activity of CCOC(=O)c1c(C)[nH]c(/C=C2\C(=O)Nc3ccccc32)c1C = 92
